subjectOfTest: Bromodomain-containing protein 4 (Homo sapiens)
assay: Binding affinity to human BRD4 bromodomain 1 (N44 to E168 residues) expressed in bacterial expression system by BROMOscan assay
measuredEndpoint: pKd
# pKd = -log10(concentration in molar units)

## Input # query: pKd of entry "COc1cc2c(cc1-c1c(C)noc1C)[nH]c1nc(C)nc(Nc3cc(C4CC4)nn3C)c12"
## Output 8.66

* * *

subjectOfTest: SWI/SNF-related matrix-associated actin-dependent regulator of chromatin subfamily A member 2 (Homo sapiens, UniProt P51531)
Sequence (P51531 whole entry, the tested form may be a part): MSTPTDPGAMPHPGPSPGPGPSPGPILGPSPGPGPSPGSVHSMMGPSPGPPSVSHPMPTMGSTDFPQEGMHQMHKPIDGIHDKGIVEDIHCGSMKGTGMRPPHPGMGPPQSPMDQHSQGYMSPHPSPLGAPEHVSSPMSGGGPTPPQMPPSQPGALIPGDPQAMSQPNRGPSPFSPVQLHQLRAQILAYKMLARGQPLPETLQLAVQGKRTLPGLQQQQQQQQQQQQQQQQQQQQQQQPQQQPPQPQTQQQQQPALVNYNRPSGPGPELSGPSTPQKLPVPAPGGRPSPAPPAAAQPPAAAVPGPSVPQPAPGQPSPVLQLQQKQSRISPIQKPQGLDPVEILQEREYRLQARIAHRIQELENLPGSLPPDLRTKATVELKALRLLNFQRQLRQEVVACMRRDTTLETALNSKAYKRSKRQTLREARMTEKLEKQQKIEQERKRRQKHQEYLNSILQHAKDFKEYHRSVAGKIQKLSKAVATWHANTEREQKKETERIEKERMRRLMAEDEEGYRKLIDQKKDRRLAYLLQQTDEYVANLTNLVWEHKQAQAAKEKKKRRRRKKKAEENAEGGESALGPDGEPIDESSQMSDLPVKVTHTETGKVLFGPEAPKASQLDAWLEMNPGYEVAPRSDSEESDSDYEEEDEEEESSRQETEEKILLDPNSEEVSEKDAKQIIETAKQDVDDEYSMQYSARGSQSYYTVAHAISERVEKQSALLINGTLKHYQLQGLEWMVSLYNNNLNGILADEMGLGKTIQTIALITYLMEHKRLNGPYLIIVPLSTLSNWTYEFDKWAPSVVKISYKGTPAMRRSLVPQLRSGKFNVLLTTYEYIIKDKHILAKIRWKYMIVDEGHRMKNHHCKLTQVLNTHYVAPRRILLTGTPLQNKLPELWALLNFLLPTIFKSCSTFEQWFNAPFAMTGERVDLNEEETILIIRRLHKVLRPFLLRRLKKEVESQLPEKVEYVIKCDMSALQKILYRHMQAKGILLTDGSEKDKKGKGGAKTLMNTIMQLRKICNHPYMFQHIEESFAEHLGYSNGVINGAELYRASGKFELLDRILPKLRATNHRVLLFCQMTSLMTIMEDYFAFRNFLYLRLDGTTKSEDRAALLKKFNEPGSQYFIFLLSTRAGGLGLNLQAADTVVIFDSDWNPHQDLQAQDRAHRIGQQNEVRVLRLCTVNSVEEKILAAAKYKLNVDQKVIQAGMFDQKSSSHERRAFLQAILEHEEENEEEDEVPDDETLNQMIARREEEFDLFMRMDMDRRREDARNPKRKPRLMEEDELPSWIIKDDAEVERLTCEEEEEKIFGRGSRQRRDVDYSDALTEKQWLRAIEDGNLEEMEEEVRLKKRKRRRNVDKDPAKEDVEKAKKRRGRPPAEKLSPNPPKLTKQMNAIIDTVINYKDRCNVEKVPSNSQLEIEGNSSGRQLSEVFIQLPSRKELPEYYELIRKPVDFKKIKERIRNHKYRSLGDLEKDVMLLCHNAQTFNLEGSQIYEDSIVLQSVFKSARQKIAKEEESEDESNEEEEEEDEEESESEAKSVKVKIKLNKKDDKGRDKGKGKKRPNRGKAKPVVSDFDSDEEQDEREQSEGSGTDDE
assay: Binding affinity to human SMARCA2 (S1377 to Q1486 residues) expressed in bacterial expression system by BROMOScan assay
measuredEndpoint: Kd

## Input # query: Kd of entry "COc1cc2c(cc1-c1c(C)noc1C)[nH]c1nc(C)nc(Nc3cc(C4CC4)nn3C)c12"
## Output > 5 µM

* * *

subjectOfTest: Bromodomain-containing protein 3 (Homo sapiens)
assay: Binding affinity to human BRD3 bromodomain 2 (G306 to P416 residues) expressed in bacterial expression system by BROMOscan assay
measuredEndpoint: pKd
# pKd = -log10(concentration in molar units)

## Input # query: pKd of entry "COc1cc2c(cc1-c1c(C)noc1C)[nH]c1nc(C)nc(Nc3cc(C4CC4)nn3C)c12"
## Output 9.31

* * *

subjectOfTest: Bromodomain-containing protein 3 (Homo sapiens, UniProt Q15059)
Sequence (Q15059 whole entry, the tested form may be a part): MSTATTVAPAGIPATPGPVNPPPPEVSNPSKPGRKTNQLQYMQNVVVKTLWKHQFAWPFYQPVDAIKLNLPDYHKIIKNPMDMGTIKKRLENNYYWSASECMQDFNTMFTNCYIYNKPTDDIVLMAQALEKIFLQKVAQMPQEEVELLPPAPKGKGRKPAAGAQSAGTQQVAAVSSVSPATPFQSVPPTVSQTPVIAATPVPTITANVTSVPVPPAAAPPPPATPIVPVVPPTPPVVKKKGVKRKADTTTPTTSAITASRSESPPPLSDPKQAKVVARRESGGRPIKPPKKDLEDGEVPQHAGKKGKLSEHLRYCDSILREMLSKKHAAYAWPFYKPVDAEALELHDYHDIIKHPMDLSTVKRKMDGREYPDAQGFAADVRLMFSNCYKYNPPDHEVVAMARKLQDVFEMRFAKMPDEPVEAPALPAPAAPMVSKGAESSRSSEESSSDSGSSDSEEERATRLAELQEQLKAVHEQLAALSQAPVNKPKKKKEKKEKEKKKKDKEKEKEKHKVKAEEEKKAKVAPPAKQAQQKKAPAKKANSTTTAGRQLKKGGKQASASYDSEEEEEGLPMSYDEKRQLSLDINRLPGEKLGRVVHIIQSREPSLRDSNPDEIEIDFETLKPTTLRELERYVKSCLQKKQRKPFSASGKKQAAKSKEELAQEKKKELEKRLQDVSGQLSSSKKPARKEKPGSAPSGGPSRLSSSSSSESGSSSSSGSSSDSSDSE
assay: Binding affinity to human BRD3 bromodomain 1 (P24 to E144 residues) expressed in bacterial expression system by BROMOscan assay
measuredEndpoint: Kd (nM)
Express the result in nM but write the number alone.

## Input # query: Kd of entry "COc1cc2c(cc1-c1c(C)noc1C)[nH]c1nc(C)nc(Nc3cc(C4CC4)nn3C)c12"
## Output 0.52

* * *

subjectOfTest: Protein polybromo-1 (Homo sapiens)
assay: Binding affinity to human PBRM1 bromodomain 5 (S645 to D766 residues) expressed in bacterial expression system by BROMOScan assay
pKd: −log10 of the molar value.
measuredEndpoint: pKd

## Input Missing value: pKd, Protein polybromo-1 (Homo sapiens), entry "COc1cc2c(cc1-c1c(C)noc1C)[nH]c1nc(C)nc(Nc3cc(C4CC4)nn3C)c12" . Fill in?
## Output < 5.30

* * *

subjectOfTest: Protein polybromo-1 (Homo sapiens)
assay: Binding affinity to human PBRM1 bromodomain 2 (S178 to E291 residues) expressed in bacterial expression system by BROMOScan assay
pKd: −log10 of the molar value.
measuredEndpoint: pKd

## Input # query: pKd of entry "COc1cc2c(cc1-c1c(C)noc1C)[nH]c1nc(C)nc(Nc3cc(C4CC4)nn3C)c12"
## Output < 5.52

* * *

assay: Plasma concentration in SCID mouse xenografted with human MDA-MB-231 cells at 50 mg/kg administered via oral gavage measured after 0.5 hrs
Type: ADME, organism-based
measuredEndpoint: concentration at 0.5 h (ng/mL)
Express the result in ng/mL but write the number alone.

## Input # query: concentration at 0.5 h of entry "COc1cc2c(cc1-c1c(C)noc1C)[nH]c1nc(C)nc(Nc3cc(C)nn3C(C)(C)C)c12"
## Output 3680

* * *

subjectOfTest: Bromodomain-containing protein 8 (Homo sapiens)
Sequence (Q9H0E9 whole entry): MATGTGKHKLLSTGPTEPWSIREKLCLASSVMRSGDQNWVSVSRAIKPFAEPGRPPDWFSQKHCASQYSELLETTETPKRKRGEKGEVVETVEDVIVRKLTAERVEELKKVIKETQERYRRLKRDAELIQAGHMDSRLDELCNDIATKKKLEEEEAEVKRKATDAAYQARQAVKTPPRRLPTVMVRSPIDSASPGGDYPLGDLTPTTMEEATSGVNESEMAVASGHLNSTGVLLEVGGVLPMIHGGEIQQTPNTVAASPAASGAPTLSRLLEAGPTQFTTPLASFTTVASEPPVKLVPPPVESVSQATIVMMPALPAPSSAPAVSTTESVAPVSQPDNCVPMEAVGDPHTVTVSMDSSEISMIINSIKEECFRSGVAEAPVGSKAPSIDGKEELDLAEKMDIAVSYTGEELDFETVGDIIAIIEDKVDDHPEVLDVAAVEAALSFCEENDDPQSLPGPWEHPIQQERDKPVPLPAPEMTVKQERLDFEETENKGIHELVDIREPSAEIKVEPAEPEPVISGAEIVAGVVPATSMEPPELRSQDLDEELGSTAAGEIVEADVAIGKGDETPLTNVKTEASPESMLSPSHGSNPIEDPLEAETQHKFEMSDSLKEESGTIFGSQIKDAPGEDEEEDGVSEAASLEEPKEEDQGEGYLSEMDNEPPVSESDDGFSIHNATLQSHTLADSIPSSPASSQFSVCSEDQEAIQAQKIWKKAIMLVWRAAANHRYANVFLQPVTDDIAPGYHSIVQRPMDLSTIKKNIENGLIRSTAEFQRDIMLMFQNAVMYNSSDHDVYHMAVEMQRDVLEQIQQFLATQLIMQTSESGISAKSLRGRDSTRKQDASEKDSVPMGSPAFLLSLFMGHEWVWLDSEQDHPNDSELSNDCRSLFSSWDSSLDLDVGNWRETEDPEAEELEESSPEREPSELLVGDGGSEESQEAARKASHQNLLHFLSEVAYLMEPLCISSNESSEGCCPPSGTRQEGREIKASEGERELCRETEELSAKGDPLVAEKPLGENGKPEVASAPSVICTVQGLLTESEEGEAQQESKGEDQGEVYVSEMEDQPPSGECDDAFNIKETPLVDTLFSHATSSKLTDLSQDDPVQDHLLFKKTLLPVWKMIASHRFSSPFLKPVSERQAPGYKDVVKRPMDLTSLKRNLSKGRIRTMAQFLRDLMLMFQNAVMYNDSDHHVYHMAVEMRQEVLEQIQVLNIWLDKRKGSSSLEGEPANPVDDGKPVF
assay: Inhibition of BRD8 bromodomain 2 (unknown origin) by BROMOScan assay
measuredEndpoint: Kd

## Input # query: Kd of entry "COc1cc2c(cc1-c1c(C)noc1C)[nH]c1nc(C)nc(Nc3cc(C4CC4)nn3C)c12"
## Output > 5 µM
